Below, each entry is listed with its recorded molar heat capacity at constant pressure.
Experiment: molar heat capacity at constant pressure
Conditions: 70 K; 101.33 kPa; Crystal
Supply the numeric figure in J/K/mol, leaving out any unit text.

IN: # molar heat capacity at constant pressure lookup, item CCCCCCCCCC(=O)OC [methyl decanoate]
OUT: 105.95

IN: Check CCCCCCCC(=O)OC [methyl octanoate] too.
OUT: 92.33

IN: Check CCCCCCCCCCCCCCCCC(=O)OC [methyl heptadecanoate] too.
OUT: 154.68

Further cases:
IN: # molar heat capacity at constant pressure lookup, item CCCCCCCCC(=O)OC [methyl nonanoate]
OUT: 100.55

IN: Check CCCCCCCCCCCCCCCCCCC(=O)OC [methyl nonadecanoate] too.
OUT: 168.98

IN: Check CCCCCCCCCCCC(=O)OC [methyl dodecanoate] too.
OUT: 119.02
